Entries and their pest or weed control at 250 g/ha values follow.
- System: redroot pigweed (Amaranthus retroflexus)
- test.description: Test G Post-Emergence Protocol
- Type: in vivo
- experimental.conditions: Amaranthus retroflexus, post-emergence, 312 h, 250 g ai/ha, evaluated after 13 days, read-out: damage to plant, Pigweed, Redroot (100=total damage to plant; 0=no damage to plant)

- molecule: "CN1C[C@@H](c2cc(Cl)nc(C(F)(F)F)c2)[C@H](C(=O)Nc2cccc(F)c2F)C1=O (racemic) [Compound 1485]"
  units.text: "%"
  pest or weed control at 250 g/ha: 40
- molecule: "CN1C[C@@H](c2ccc(C(F)(F)F)cc2)[C@H](C(=O)Nc2ccc(F)c(Cl)c2F)C1=O (racemic) [Compound 1628]"
  units.text: "%"
  pest or weed control at 250 g/ha: 60
- molecule: "COc1cc(NC(=O)[C@@H]2C(=O)N(C)C[C@H]2c2ccc(C(F)(F)F)cc2)ccn1 (racemic) [Compound 1589]"
  units.text: "%"
  pest or weed control at 250 g/ha: 0
- molecule: "CN1C[C@@H](c2cc(Cl)cc(C(F)(F)F)c2)[C@H](C(=O)Nc2ccccc2F)C1=O (racemic) [Compound 1414]"
  units.text: "%"
  pest or weed control at 250 g/ha: 30
- molecule: "Cc1c(C#N)cccc1NC(=O)[C@H]1C(=O)N(C)C[C@@H]1c1ccc(C(F)(F)F)cc1 (racemic) [Compound 1444]"
  units.text: "%"
  pest or weed control at 250 g/ha: 20
- molecule: "COc1c(Cl)ccc([C@H]2CN(C)C(=O)[C@@H]2C(=O)Nc2cccc(F)c2F)c1F (racemic) [Compound 1476]"
  units.text: "%"
  pest or weed control at 250 g/ha: 10
- molecule: "CN1C[C@@H](c2ccc(C(F)(F)F)cc2)[C@H](C(=O)Nc2ncc(Br)cn2)C1=O (racemic) [Compound 1514]"
  units.text: "%"
  pest or weed control at 250 g/ha: 0
- molecule: "CN1C[C@@H](c2ccc(C(F)(F)F)cc2)[C@H](C(=O)Nc2ccno2)C1=O (racemic) [Compound 1513]"
  units.text: "%"
  pest or weed control at 250 g/ha: 0
- molecule: "CN1C[C@@H](c2ccc(C(F)(F)F)cc2)[C@H](C(=O)Nc2cc[nH]n2)C1=O (racemic) [Compound 1533]"
  units.text: "%"
  pest or weed control at 250 g/ha: 0
- molecule: "CC(C)c1cc([C@H]2CN(C)C(=O)[C@@H]2C(=O)Nc2cccc(F)c2F)cnn1 (racemic) [Compound 1488]"
  units.text: "%"
  pest or weed control at 250 g/ha: 0
- molecule: "Cc1c(NC(=O)[C@H]2C(=O)N(C)C[C@@H]2c2ccc(C(F)(F)F)cc2)cccc1C(F)(F)F (racemic) [Compound 1424]"
  units.text: "%"
  pest or weed control at 250 g/ha: 20
- molecule: "Cc1ncsc1NC(=O)[C@@H]1C(=O)N(C)C[C@H]1c1ccc(C(F)(F)F)cc1 (racemic) [Compound 1635]"
  units.text: "%"
  pest or weed control at 250 g/ha: 10
- molecule: "CN1C[C@@H](c2ccc(C(F)(F)F)cc2)[C@H](C(=O)Nc2nnc(C(F)(F)F)s2)C1=O (racemic) [Compound 1548]"
  units.text: "%"
  pest or weed control at 250 g/ha: 0
- molecule: "CN1C[C@H](c2cccc(C(F)F)c2)[C@@H](C(=O)Nc2ccccc2F)C1=O (racemic) [Compound 1464]"
  units.text: "%"
  pest or weed control at 250 g/ha: 30

====

- Tested on: corn (Zea mays)
- test.description: Test G Post-Emergence Protocol
- Assay type: in vivo
- experimental.conditions: Zea mays, post-emergence, 312 h, 250 g ai/ha, evaluated after 13 days, read-out: damage to plant, Corn (100=total damage to plant; 0=no damage to plant)
- Source text: Seeds of corn (Zea mays), giant foxtail (Setaria faberi), barnyardgrass (Echinochloa crus-galli), ivy-leaved morning glory (Ipomoea hederacea), redroot pigweed (Amaranthus retroflexus) and velvetleaf (Abutilon theophrasti) were sown in standard soil in pots. […]

- molecule: "CN1C[C@@H](c2ccc(C(F)(F)F)cc2)[C@H](C(=O)Nc2c[nH]nc2Cl)C1=O (racemic) [Compound 1633]"
  assayed.system: "corn (Zea mays)"
  plant injury at 250 g/ha [%]: 0
- molecule: "Cc1cnc(NC(=O)[C@@H]2C(=O)N(C)C[C@H]2c2ccc(C(F)(F)F)cc2)s1 (racemic) [Compound 1570]"
  assayed.system: "corn (Zea mays)"
  plant injury at 250 g/ha [%]: 0
- molecule: "Cc1cc(Cl)ncc1NC(=O)[C@@H]1C(=O)N(C)C[C@H]1c1ccc(C(F)(F)F)cc1 (racemic) [Compound 1578]"
  assayed.system: "corn (Zea mays)"
  plant injury at 250 g/ha [%]: 10
- molecule: "Cc1c(NC(=O)[C@@H]2C(=O)N(C)C[C@H]2c2ccc(C(F)(F)F)cc2)ccc(F)c1F (racemic) [Compound 1502]"
  assayed.system: "corn (Zea mays)"
  plant injury at 250 g/ha [%]: 60
- molecule: "COc1c(Cl)ccc([C@H]2CNC(=O)[C@@H]2C(=O)Nc2cccc(F)n2)c1F (racemic) [Compound 1478]"
  assayed.system: "corn (Zea mays)"
  plant injury at 250 g/ha [%]: 20
- molecule: "CN1C[C@@H](c2ccc(C(F)(F)F)cc2)[C@H](C(=O)Nc2cc(C(F)(F)F)nn2C)C1=O (racemic) [Compound 1510]"
  assayed.system: "corn (Zea mays)"
  plant injury at 250 g/ha [%]: 10
- molecule: "CN1C[C@@H](c2ccc(NS(C)(=O)=O)cc2)[C@H](C(=O)Nc2ccccc2F)C1=O (racemic) [Compound 1416]"
  assayed.system: "corn (Zea mays)"
  plant injury at 250 g/ha [%]: 0

====

- Test system: Kochia (Kochia scoparia)
- test.description: Test A postemergence
- Type: in vivo
- experimental.conditions: 125 g ai/ha, postemergence; visual rating after approx. 10 d, 0 to 100 scale (0 no effect, 100 complete control)

- molecule: "CN1CC(c2cccc(F)c2)C(C(=O)Nc2ccc(F)cc2F)C1=O (centres unmarked)"
  Plant response rating, Kochia: 40
- molecule: "CN1CC(c2cccc(C(F)(F)F)c2)C(C(=O)Nc2ccccc2C(F)(F)F)C1=O (centres unmarked)"
  Plant response rating, Kochia: 20
- molecule: "CCc1cc(C2CNC(=O)C2C(=O)Nc2cccc(F)c2F)cs1 (racemic)"
  Plant response rating, Kochia: 0
- molecule: "Cc1cccc(C2CN(C)C(=O)C2C(=O)Nc2ccccc2S(C)(=O)=O)c1 (centres unmarked)"
  Plant response rating, Kochia: 20
- molecule: "O=C1NCC(c2cccc(C(F)(F)F)c2)C1C(=O)Nc1ccc(F)cc1Cl (racemic)"
  Plant response rating, Kochia: 0
- molecule: "CN1CC(c2ccc(F)c(F)c2)C(C(=O)Nc2ccccc2C(F)(F)F)C1=O (centres unmarked)"
  Plant response rating, Kochia: 0
- molecule: "CN1CC(c2cccc(C(F)(F)F)c2)C(C(=O)Nc2ccccc2[N+](=O)[O-])C1=O (centres unmarked)"
  Plant response rating, Kochia: 20
- molecule: "Cc1cc(C2CNC(=O)C2C(=O)Nc2cccc(F)c2F)cs1 (racemic)"
  Plant response rating, Kochia: 20

====

Entries and their pest or weed control at 125 g/ha values follow.
- Tested on: Galium (catchweed bedstraw, Galium aparine)
- test.description: Test A postemergence
- Type: in vivo
- experimental.conditions: Galium, post-emergence, 240 h, 125 g ai/ha, postemergence; visual injury on 0 to 100 scale (0 no effect, 100 complete control), approx. 10 d; read-out: Galium plant response rating
observed.property: pest or weed control at 125 g/ha (%)

- compound: "CN1C[C@H](c2cc(C(F)F)cs2)[C@@H](C(=O)Nc2cccc(F)c2F)C1=O [Compound 1121]"
  assayed.system: "Galium (catchweed bedstraw, Galium aparine)"
  units.text: "%"
  readout.number: 50
- compound: "CC(C)=CC1CNC(=O)C1C(=O)Nc1ccccc1S(C)(=O)=O (stereo not shown) [Compound 1057]"
  assayed.system: "Galium (catchweed bedstraw, Galium aparine)"
  units.text: "%"
  readout.number: 0
- compound: "O=C1NC[C@H](c2csc(C(F)F)c2)[C@H]1C(=O)Nc1ccccc1F [Compound 1118]"
  assayed.system: "Galium (catchweed bedstraw, Galium aparine)"
  units.text: "%"
  readout.number: 50
- compound: "Cc1c(F)cccc1NC(=O)[C@H]1C(=O)N(C)C[C@@H]1c1cc(F)cc(F)c1 [Compound 1140]"
  assayed.system: "Galium (catchweed bedstraw, Galium aparine)"
  units.text: "%"
  readout.number: 40
- compound: "CN1C[C@H](c2ccc(F)c(Oc3ccccc3)c2)[C@@H](C(=O)Nc2ccccc2F)C1=O [Compound 1141]"
  assayed.system: "Galium (catchweed bedstraw, Galium aparine)"
  units.text: "%"
  readout.number: 90
- compound: "Cc1ccc([C@H]2CN(C)C(=O)[C@@H]2C(=O)Nc2cccc(F)c2F)cc1C [Compound 1039]"
  assayed.system: "Galium (catchweed bedstraw, Galium aparine)"
  units.text: "%"
  readout.number: 40
- compound: "CN1CC(c2ccccc2OC(F)(F)C(F)F)C(C(=O)Nc2ccccc2F)C1=O (stereo not shown) [Compound 1053]"
  assayed.system: "Galium (catchweed bedstraw, Galium aparine)"
  units.text: "%"
  readout.number: 0
- compound: "CN1CC(c2cccc(C(F)(F)F)c2)C(C(=O)Nc2ccccc2C(C)(C)O)C1=O (stereo not shown) [Compound 1146]"
  assayed.system: "Galium (catchweed bedstraw, Galium aparine)"
  units.text: "%"
  readout.number: 0
- compound: "CSc1ccccc1NC(=O)C1C(=O)NCC1C=C(C)C (stereo not shown) [Compound 1055]"
  assayed.system: "Galium (catchweed bedstraw, Galium aparine)"
  units.text: "%"
  readout.number: 0
- compound: "CN1C[C@H](c2csc3c2CCC3)[C@@H](C(=O)Nc2ccccc2S(C)(=O)=O)C1=O [Compound 1082]"
  assayed.system: "Galium (catchweed bedstraw, Galium aparine)"
  units.text: "%"
  readout.number: 0
